# Test target: HLA-A*0201 (human)
# Protocol: inhibition of 125I probe peptide binding to purified HLA, gel filtration; ratio = IC50 standard/IC50 test
Listing of entries alongside the reported binding affinity ratio.
The answer should be a number; do not append a unit.

Past entries and their recorded results:
{"Binder": "AALFPPEGV (modifications not checked) [… (PAP, position 121)]", "binding affinity ratio": 0.0002}
{"Binder": "AAAETLSEV (modifications not checked) [… (PSM, position 741)]", "binding affinity ratio": 0.0002}
{"Binder": "ALPERPSL (modifications not checked) [ALPERPSL (PSA, position 231)]", "binding affinity ratio": 0.0002}
{"Binder": "ALPERPSLYT (modifications not checked) [… (PSA, position 231)]", "binding affinity ratio": 0.0008}
{"Binder": "ATEDTMTKL (modifications not checked) [… (PAP, position 227)]", "binding affinity ratio": 0.0002}

// query Please give the documented binding affinity ratio of ATLGKLSGL (modifications not checked) [… (PAP, position 189)]
// result 0.0005

// query Please give the documented binding affinity ratio of AAPLILSRI (modifications not checked)
// result 0.0002

// query Please give the documented binding affinity ratio of AAPLILSRIV (modifications not checked)
// result 0.0002
